Listing: growth of selected molecules
System: EKVX NSCLC
Experiment: NCI-60 one-dose screen, 48 h (100 = growth as untreated, 0 = no growth, -100 = all killed)
Conditions: 10 µM unless noted
The panel holds about 83,000 compounds, 20% with a hit somewhere; the sample as a whole holds those more often. Active and inactive are the calls of the source. How the source made its calls: active means growth percent below 10; inactive means the rest.

1. Cc1ccc(Nc2cc(N)nc(N)n2)cc1 :: 95.7% (inactive)
2. O=C(OCc1ccc2c(Br)cc(Br)c(O)c2n1)N1CCN(C(=O)c2cc3ccccc3[nH]2)CC1 :: 29.9% (inactive)
3. Cc1nc2cccc(NCc3ccc(C(=O)NO)cc3)c2c(=O)n1-c1ccccc1 :: 61.8% (inactive)
4. CCCCCCCC/C=C\CCCCCCCCOc1ccc(CC(=O)NCC[N+]2(C)CCCC2)cc1 :: 86.1% (inactive)
5. O=c1ccc2nc(-c3ccccc3)nn(-c3ccccn3)c-2c1 :: 109% (inactive)
6. CC/C(=C(/c1ccc(Cl)cc1)c1ccc(OCCN(CC)CC)cc1)c1ccc(OC)cc1 :: 62.2% (inactive)

QUERY: Answer briefly: growth recorded on EKVX NSCLC for COC(=O)[C@@H](Cc1c[nH]c2ccccc12)NC(=O)[C@H](Cc1ccccc1)NCc1ccncc1
RESULT: 103% (inactive)

QUERY: Answer briefly: growth recorded on EKVX NSCLC for COC(=O)c1nc(-c2ccccc2)oc1S(=O)(=O)NCC(c1ccc(Cl)cc1)N1CCCCC1 (stereo unspecified)
RESULT: 104% (inactive)

QUERY: Answer briefly: growth recorded on EKVX NSCLC for CCOc1ccc(N2C(=O)CCSC2=S)cc1
RESULT: 95.5% (inactive)

----------
System: OVCAR-4 ovarian
Assay: NCI-60 one-dose screen, 48 h (100 = growth as untreated, 0 = no growth, -100 = all killed)
Details: 10 µM unless noted
This is part of a sample that, as a whole, favours compounds with a hit. Of some 83,000 tested, about 20% had one in any assay. Calls of active or inactive are those of the source. How the source made its calls: active means growth percent below 10; inactive means the rest.
Listing: growth of selected molecules

Examples with answers:
1) Cc1[nH]c(C2CC(c3ccc(C(F)(F)F)c(F)c3)=NN2C)c(C)c1C(=O)NCC(F)(F)F (stereo not drawn) :: 90.9% (inactive)
2) O=C(N/N=C/c1ccccc1Cl)c1ccccc1Nc1ccnc(C(F)(F)F)c1 :: -1.98% (active)
3) CO[C@]12C=C/C(=C(/C(=O)OCc3cccnc3)C(=O)CCCCCCCC[C@]3(OC)C=C/C(=C(/C(=O)OCc4cccnc4)C(=O)CCCCCCCC1)O3)O2 :: -65.6% (active)
4) c1ccc2c(-c3cnn4cc(-c5ccc(N6CCNCC6)cc5)cnc34)ccnc2c1 :: -65.8% (active)
5) CC1(C)CC[C@]2(CO)CC[C@]3(C)[C@H](CC[C@@H]4[C@@]5(C)CC[C@H](O)C(C)(C)[C@@H]5CC[C@]43C)[C@H]2[C@H]1O :: 58.5% (inactive)

QUERY: State its growth for this molecule: COc1cc(/C=C/c2cc(/C=C/c3ccc(O)c(OC)c3)n(C(=O)Nc3ccc(C)cc3C)n2)ccc1O
RESULT: 7.87% (active)

QUERY: State its growth for this molecule: COc1cccc(C2C(C#N)=C(N)Oc3c2ccc2ccccc32)c1 (stereo not drawn)
RESULT: 66.2% (inactive)

QUERY: State its growth for this molecule: CCOC(=O)CC1CSC(N/N=C(/C)c2cccc(C(F)(F)F)c2)=N1 (stereo not drawn)
RESULT: 94.1% (inactive)
